Attribution: patent US10633399B2

# measurementDescription: Cell viability assay (MTT), MDA-MB-231
# details: human, MDA-MB-231 breast cancer cells
readoutType: viability at 72 h, 12.5 µM (%)
One number for each entry, in %.

| lineNotation | viability at 72 h, 12.5 µM / % |
| --- | --- |
| Cc1ccc(CNc2ccc3c(c2)B(O)OC3)cc1 | 84.1 |
| COc1ccc(CN(C(=O)NCCCl)c2ccc3c(c2)B(O)OC3)cc1 | 95.8 |
| OB1OCc2ccc(NCc3ccc(F)cc3)cc21 | 84 |
| O=NN(Cc1ccc(F)cc1)c1ccc2c(c1)B(O)OC2 | 128 |
| CN(C)c1ccc(CNc2ccc3c(c2)B(O)OC3)cc1 | 97.6 |
| O=C(O)c1ccc(CNc2ccc3c(c2)B(O)OC3)cc1 | 100 |

Parameter requested: viability at 72 h, 12.5 µM. Apply to each item below.
1. OB1OCc2ccc(NCc3ccc(Cl)cc3Cl)cc21
2. O=NN(Cc1ccc(Cl)cc1Cl)c1ccc2c(c1)B(O)OC2
3. OB1OCc2ccc(NCc3ccc4c(c3)OCO4)cc21
4. O=C(NCCCl)N(Cc1ccccc1)c1ccc2c(c1)B(O)OC2

Result string:
1. 75.2
2. 134
3. 88.5
4. 135

----------
For each record, write down the corresponding viability at 72 h, 50 µM.
# measurementDescription: Cell viability assay (MTT), MDA-MB-231
# details: human, MDA-MB-231 breast cancer cells
Numbers only, in %.

For every item below, please supply its viability at 72 h, 50 µM.
1. CCCCN(CCCC)c1ccc(CNc2ccc3c(c2)B(O)OC3)cc1
2. CN(C)c1ccc(CNc2ccc3c(c2)B(O)OC3)cc1
3. O=NN(Cc1ccc(Cl)cc1Cl)c1ccc2c(c1)B(O)OC2
4. OB1OCc2ccc(NCc3ccccc3)cc21
5. OB1OCc2ccc(NCc3ccc4c(c3)OCO4)cc21

Result string:
1: 103; 2: 71.1; 3: 106; 4: 80.2; 5: 102

----------
For each of the compounds below, state its viability at 72 h, 50 µM.
# measurementDescription: Cell viability assay (MTT), MDA-MB-231
# details: human, MDA-MB-231 breast cancer cells
Give bare numbers, in %.

Below, 2 compounds whose answers are already recorded.
| lineNotation | u | viability at 72 h, 50 µM |
| --- | --- | --- |
| OB1OCc2ccc(NCc3ccc(Cl)cc3Cl)cc21 | % | 75.7 |
| COc1ccc(CN(N=O)c2ccc3c(c2)B(O)OC3)cc1 | % | 123 |

Hey, can you go through the list below and give me viability at 72 h, 50 µM for every item?
1. OB1OCc2ccc(NCc3ccc(F)cc3)cc21
2. O=C(NC1CCCCC1)N(Cc1ccccc1)c1ccc2c(c1)B(O)OC2
3. O=NN(Cc1ccc(F)cc1F)c1ccc2c(c1)B(O)OC2
4. O=NN(Cc1ccc(Cl)c(Cl)c1)c1ccc2c(c1)B(O)OC2
5. N#Cc1ccc(CNc2ccc3c(c2)B(O)OC3)cc1

Result string:
1. 91.7
2. 128
3. 126
4. 146
5. 109

----------
# measurementDescription: Cell viability assay (MTT), MDA-MB-231
# details: human, MDA-MB-231 breast cancer cells
readoutType: viability at 72 h, 12.5 µM (%)
Answers are plain numbers, in %.

Example entries begin here.
| lineNotation | u | viability at 72 h, 12.5 µM |
| --- | --- | --- |
| COc1ccc(CNc2ccc3c(c2)B(O)OC3)cc1 | % | 90.2 |
| OB1OCc2ccc(NCc3ccccc3)cc21 | % | 73.7 |
| O=C(Nc1ccccc1)N(Cc1ccccc1)c1ccc2c(c1)B(O)OC2 | % | 116 |
| O=NN(Cc1ccccc1)c1ccc2c(c1)B(O)OC2 | % | 121 |
| OB1OCc2ccc(NCc3cc4ccccc4nc3Cl)cc21 | % | 44.3 |

Switching to the query record.
Query string: Indicate its recorded viability at 72 h, 12.5 µM; the compound in question is `O=NN(Cc1ccc(Cl)c(Cl)c1)c1ccc2c(c1)B(O)OC2`
Result string: 122

----------
Exercise: for every item that follows, state its recorded melting point.

Sample answers from the record:
| lineNotation | readoutType | measuredResult |
| --- | --- | --- |
| N#Cc1ccc(CNc2ccc3c(c2)B(O)OC3)cc1 | melting point | 141 to 143 °C |
| OB1OCc2ccc(NCc3cc4ccccc4nc3Cl)cc21 | melting point | 209 to 211 °C |
| OB1OCc2ccc(NCc3ccc(N4CCCCC4)cc3)cc21 | melting point | 65 to 67 °C |
| CCCCN(CCCC)c1ccc(CNc2ccc3c(c2)B(O)OC3)cc1 | melting point | 94 to 96 °C |
| OB1OCc2ccc(NCc3ccc(F)cc3)cc21 | melting point | 135 to 137 °C |

Respectfully, I request melting point for each entry included below.
1. OB1OCc2ccc(NCc3ccc(Cl)cc3Cl)cc21
2. O=C(Nc1ccccc1)N(Cc1ccccc1)c1ccc2c(c1)B(O)OC2
3. COc1ccc(CN(N=O)c2ccc3c(c2)B(O)OC3)cc1
4. O=NN(Cc1ccc(Cl)cc1Cl)c1ccc2c(c1)B(O)OC2

Result string:
["106 to 108 °C", "116 to 118 °C", "109 to 111 °C", "121 to 123 °C"]

Quick batch: melting point for everything below.
1. COc1ccc(CNc2ccc3c(c2)B(O)OC3)cc1
2. O=NN(Cc1ccc(F)cc1)c1ccc2c(c1)B(O)OC2
3. O=C(NC1CCCCC1)N(Cc1ccccc1)c1ccc2c(c1)B(O)OC2
4. OB1OCc2ccc(NCc3ccc(F)cc3F)cc21
5. COc1ccc(CN(C(=O)NCCCl)c2ccc3c(c2)B(O)OC3)cc1
6. OB1OCc2ccc(NCc3ccccc3)cc21

Result string:
1: 122 to 124 °C; 2: 121 to 123 °C; 3: 125 to 127 °C; 4: 136 to 138 °C; 5: 134 to 136 °C; 6: 123 to 125 °C

Give measured melting point for every item shown.
1. O=C(NCCCl)N(Cc1ccccc1)c1ccc2c(c1)B(O)OC2
2. CN(C)c1ccc(CNc2ccc3c(c2)B(O)OC3)cc1
3. Cc1ccc(CNc2ccc3c(c2)B(O)OC3)cc1
4. COc1ccc(CN(C(=O)Nc2ccccc2)c2ccc3c(c2)B(O)OC3)cc1
5. O=C(O)c1ccc(CNc2ccc3c(c2)B(O)OC3)cc1
6. OB1OCc2ccc(NCc3ccc4c(c3)OCO4)cc21

Result string:
1: 138 to 140 °C; 2: 122 to 124 °C; 3: 148 to 150 °C; 4: 104 to 106 °C; 5: 221 to 223 °C; 6: 136 to 138 °C

Query string: Output melting point of `OB1OCc2ccc(NCc3ccc(Cl)c(Cl)c3)cc21`
Result string: 128 to 130 °C

----------
# measurementDescription: Cell viability assay (MTT), MIAPaCa-2
# details: human, MIAPaCa-2 pancreatic cancer cells
readoutType: viability at 72 h, 50 µM (%)
One number for each entry, in %.

Consider the reported viability at 72 h, 50 µM for these compounds:
| lineNotation | u | measuredResult |
| --- | --- | --- |
| O=C(NC1CCCCC1)N(Cc1ccccc1)c1ccc2c(c1)B(O)OC2 | % | 39.4 |
| O=C(Nc1ccccc1)N(Cc1ccccc1)c1ccc2c(c1)B(O)OC2 | % | 30 |
| Cc1ccc(CNc2ccc3c(c2)B(O)OC3)cc1 | % | 45.9 |
| COc1ccc(CN(C(=O)Nc2ccccc2)c2ccc3c(c2)B(O)OC3)cc1 | % | 17.5 |
| CN(C)c1ccc(CNc2ccc3c(c2)B(O)OC3)cc1 | % | 78.4 |
| OB1OCc2ccc(NCc3ccc(N4CCCCC4)cc3)cc21 | % | 49.5 |

Record viability at 72 h, 50 µM per entry; entries follow.
1. O=NN(Cc1ccc(F)cc1F)c1ccc2c(c1)B(O)OC2
2. OB1OCc2ccc(NCc3cc4ccccc4nc3Cl)cc21
3. COc1ccc(CN(N=O)c2ccc3c(c2)B(O)OC3)cc1
4. CCCCN(CCCC)c1ccc(CNc2ccc3c(c2)B(O)OC3)cc1
5. COc1ccc(CN(C(=O)NCCCl)c2ccc3c(c2)B(O)OC3)cc1
6. OB1OCc2ccc(NCc3ccc(Cl)c(Cl)c3)cc21
7. OB1OCc2ccc(NCc3ccc(F)cc3F)cc21
8. COc1ccc(CN(C(=O)NC2CCCCC2)c2ccc3c(c2)B(O)OC3)cc1

Result string:
1: 70.5; 2: 28.6; 3: 61; 4: 58.2; 5: 60.4; 6: 62.6; 7: 63.9; 8: 25.1

List reported viability at 72 h, 50 µM for each of these compounds:
1. O=C(O)c1ccc(CNc2ccc3c(c2)B(O)OC3)cc1
2. COc1ccc(CNc2ccc3c(c2)B(O)OC3)cc1
3. O=NN(Cc1ccccc1)c1ccc2c(c1)B(O)OC2

Result string:
1. 80.6
2. 37.9
3. 51.5

Can you give me viability at 72 h, 50 µM for all of these, one by one?
1. O=NN(Cc1ccc(Cl)c(Cl)c1)c1ccc2c(c1)B(O)OC2
2. O=C(NCCCl)N(Cc1ccccc1)c1ccc2c(c1)B(O)OC2
3. O=NN(Cc1ccc(Cl)cc1Cl)c1ccc2c(c1)B(O)OC2
4. N#Cc1ccc(CNc2ccc3c(c2)B(O)OC3)cc1
5. OB1OCc2ccc(NCc3ccccc3)cc21
6. OB1OCc2ccc(NCc3ccc(Cl)cc3Cl)cc21
7. OB1OCc2ccc(NCc3ccc4c(c3)OCO4)cc21

Result string:
59.9
61.8
69.5
47
34.5
65.8
69

For every listed record, write down its viability at 72 h, 50 µM.
1. OB1OCc2ccc(NCc3ccc(F)cc3)cc21
2. O=NN(Cc1ccc(F)cc1)c1ccc2c(c1)B(O)OC2

Result string:
[73.6, 62.8]
